Hello, the source for this data is ChEMBL document CHEMBL1153990, in case you need it.

System: Phosphatidylinositol 4,5-bisphosphate 3-kinase catalytic subunit alpha isoform (Homo sapiens)
Sequence (P42336 whole entry, canonical isoform): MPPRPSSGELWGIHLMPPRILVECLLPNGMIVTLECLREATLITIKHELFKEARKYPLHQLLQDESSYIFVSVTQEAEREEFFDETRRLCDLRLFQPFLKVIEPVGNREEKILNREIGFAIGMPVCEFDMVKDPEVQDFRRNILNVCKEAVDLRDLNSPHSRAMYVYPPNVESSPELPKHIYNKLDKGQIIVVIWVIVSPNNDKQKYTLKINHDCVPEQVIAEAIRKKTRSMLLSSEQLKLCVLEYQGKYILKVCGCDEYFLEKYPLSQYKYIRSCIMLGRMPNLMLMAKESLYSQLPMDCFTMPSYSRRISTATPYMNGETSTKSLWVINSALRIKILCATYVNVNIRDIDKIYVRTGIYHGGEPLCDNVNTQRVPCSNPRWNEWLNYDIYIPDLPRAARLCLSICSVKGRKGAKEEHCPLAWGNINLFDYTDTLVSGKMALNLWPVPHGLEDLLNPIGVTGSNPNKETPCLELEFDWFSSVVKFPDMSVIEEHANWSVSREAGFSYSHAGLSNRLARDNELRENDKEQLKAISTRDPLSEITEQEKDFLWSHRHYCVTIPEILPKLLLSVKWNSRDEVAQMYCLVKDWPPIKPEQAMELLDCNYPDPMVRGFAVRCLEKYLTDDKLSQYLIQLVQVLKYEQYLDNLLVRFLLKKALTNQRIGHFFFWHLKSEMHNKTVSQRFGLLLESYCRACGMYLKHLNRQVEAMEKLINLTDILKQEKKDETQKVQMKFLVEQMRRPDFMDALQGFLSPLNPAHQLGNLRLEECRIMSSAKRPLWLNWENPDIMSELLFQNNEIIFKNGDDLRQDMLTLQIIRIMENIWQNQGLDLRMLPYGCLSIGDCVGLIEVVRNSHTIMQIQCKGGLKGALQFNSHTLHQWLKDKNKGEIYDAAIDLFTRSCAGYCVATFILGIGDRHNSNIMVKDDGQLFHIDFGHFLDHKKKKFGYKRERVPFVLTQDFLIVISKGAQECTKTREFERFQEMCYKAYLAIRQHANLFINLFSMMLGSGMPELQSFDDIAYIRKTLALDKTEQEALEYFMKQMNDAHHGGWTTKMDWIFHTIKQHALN
Experimental details: Inhibition of PI3Kalpha by luminescent kinase glo assay
Test readout: IC50 (µM)

Item smiles	IC50 (µM)
CCOC(=O)c1ccnc(N2CCOCC2)c1	51

a = Cc1cc(F)ccc1NCc1cc(C(=O)O)cc(-c2cccc(O)c2)n1
b = Cc1cc(F)ccc1NCc1cc(C(=O)O)cc(N2CCOCC2)n1
c = Cc1cc(F)ccc1NCc1cc(CO)cc(N2CCOCC2)n1
In: Arrange by IC50, high to low. Show the ranking through the labels, in the order asked for.
Out: a, c, b

====

Catalogue of IC50 readings, one per entry.
System: Phosphatidylinositol 4,5-bisphosphate 3-kinase catalytic subunit gamma isoform (Homo sapiens, UniProt P48736)
Sequence (P48736 whole entry, canonical isoform): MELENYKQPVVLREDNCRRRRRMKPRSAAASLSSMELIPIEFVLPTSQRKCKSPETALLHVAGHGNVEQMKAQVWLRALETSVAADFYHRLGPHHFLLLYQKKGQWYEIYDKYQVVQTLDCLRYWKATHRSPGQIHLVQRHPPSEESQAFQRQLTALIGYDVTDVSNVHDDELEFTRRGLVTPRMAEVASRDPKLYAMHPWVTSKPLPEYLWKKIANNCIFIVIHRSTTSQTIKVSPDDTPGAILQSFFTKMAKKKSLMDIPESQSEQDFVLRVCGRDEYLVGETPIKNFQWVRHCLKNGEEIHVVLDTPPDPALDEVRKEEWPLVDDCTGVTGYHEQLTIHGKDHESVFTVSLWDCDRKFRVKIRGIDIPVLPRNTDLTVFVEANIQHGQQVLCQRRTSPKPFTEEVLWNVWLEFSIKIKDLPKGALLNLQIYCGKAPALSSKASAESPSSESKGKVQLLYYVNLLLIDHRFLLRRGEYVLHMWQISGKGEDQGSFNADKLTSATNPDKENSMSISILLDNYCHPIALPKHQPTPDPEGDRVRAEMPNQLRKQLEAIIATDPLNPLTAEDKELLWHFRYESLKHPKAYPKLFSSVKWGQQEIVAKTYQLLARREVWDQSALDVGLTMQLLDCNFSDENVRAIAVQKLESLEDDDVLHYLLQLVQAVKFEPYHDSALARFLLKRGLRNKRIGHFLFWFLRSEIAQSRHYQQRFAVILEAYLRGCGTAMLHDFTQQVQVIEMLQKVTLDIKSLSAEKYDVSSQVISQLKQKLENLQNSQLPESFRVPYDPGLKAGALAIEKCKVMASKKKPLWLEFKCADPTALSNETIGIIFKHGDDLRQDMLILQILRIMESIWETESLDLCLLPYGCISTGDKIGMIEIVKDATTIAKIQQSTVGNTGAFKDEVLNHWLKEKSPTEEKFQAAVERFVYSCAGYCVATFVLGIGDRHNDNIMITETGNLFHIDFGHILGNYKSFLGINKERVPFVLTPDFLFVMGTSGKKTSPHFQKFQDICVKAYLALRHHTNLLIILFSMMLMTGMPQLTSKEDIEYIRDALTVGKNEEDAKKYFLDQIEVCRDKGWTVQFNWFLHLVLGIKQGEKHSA
Experimental details: Inhibition of PI3Kgamma by luminescent kinase glo assay

In: Entry `Cc1cc(F)ccc1NCc1cc(C(=O)O)cc(N2CCOCC2)n1` : reported IC50 = ?
Out: 34 µM

In: Entry to check: `Cc1cc(F)ccc1NCc1cc(C(=O)O)cc(N2CCCCC2)n1`
Out: > 100 µM
